System: T1, human SEMA4D, full length, on CHO-K1 cells (CHO-K1 hSEMA4D) (human, UniProt Q92854 22-862)
T1 construct: whole, on cells; also called human SEMA4D recombinant cells
T1 sequence (looked up): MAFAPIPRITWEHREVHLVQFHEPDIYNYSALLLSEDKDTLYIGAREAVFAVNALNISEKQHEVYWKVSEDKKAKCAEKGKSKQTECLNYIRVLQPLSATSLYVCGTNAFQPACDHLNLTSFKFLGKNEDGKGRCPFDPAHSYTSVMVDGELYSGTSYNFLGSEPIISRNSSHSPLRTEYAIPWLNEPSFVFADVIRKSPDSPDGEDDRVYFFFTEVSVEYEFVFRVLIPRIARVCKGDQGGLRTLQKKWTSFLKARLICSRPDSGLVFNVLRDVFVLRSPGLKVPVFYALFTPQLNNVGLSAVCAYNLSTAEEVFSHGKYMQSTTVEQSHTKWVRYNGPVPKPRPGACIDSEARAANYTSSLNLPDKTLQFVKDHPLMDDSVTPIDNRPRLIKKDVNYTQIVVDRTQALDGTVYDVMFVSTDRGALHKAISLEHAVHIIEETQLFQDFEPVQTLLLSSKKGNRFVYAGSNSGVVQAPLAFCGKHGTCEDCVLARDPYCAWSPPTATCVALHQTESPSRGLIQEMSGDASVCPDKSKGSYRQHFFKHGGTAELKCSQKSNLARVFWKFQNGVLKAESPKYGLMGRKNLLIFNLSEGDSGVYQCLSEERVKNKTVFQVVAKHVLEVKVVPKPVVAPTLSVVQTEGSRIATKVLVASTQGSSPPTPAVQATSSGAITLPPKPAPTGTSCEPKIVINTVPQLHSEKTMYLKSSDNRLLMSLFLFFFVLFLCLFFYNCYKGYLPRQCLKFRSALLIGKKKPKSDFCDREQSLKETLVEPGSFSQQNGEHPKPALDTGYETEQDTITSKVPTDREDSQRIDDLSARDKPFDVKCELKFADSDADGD
Test details: FACS, CHO-K1 hSEMA4D cells; Ab 66.7 nM
Method: The medium was aspirated, the cells were washed once with PBS buffer (purchased from Invitrogen), and then treated with cell dissociation fluid (TrypLE™ Express Enzyme, purchased from Life technology), and the cells were collected. After the cells counted, the cells were washed once with PBS phosphate buffer, and diluted to 3×10⁶ cells per milliliter, and added to the 96-well FACS reaction plate as 100 μL per well. […]
Measure: MFI

Any idea what MFI was measured for 37C4F7 (antibody, V domains shown, Mouse monoclonal antibody purified from hybridoma supernatant on protein A) VH: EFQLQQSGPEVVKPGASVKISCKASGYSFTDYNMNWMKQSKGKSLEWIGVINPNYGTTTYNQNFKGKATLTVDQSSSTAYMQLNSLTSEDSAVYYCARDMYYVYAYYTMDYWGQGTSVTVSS VL: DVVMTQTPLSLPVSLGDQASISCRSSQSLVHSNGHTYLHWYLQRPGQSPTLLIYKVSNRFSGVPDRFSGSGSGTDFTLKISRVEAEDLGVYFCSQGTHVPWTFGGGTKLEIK ?
4740

38H2E3 (antibody, V domains shown, Mouse monoclonal antibody purified from hybridoma supernatant on protein A) VH: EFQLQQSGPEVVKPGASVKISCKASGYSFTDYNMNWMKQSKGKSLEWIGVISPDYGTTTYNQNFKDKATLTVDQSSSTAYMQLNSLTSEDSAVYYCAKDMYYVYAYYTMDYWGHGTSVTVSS VL: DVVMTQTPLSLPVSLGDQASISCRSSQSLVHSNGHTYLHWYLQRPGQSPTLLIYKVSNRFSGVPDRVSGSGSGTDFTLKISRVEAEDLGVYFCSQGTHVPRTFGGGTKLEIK , same question.
5470

Next:
Any idea what MFI was measured for 31C11G2 (antibody, V domains shown, Mouse monoclonal antibody purified from hybridoma supernatant on protein A) VH: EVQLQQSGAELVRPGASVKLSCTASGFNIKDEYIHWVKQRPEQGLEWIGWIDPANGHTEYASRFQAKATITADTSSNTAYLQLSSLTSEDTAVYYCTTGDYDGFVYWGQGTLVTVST VL: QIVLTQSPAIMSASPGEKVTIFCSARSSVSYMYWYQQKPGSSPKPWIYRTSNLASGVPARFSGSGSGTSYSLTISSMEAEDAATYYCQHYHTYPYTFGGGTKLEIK ?
6750
